Measured growth of individual entries
- System: DU-145 prostate
- PROTOCOL_NOTES: NCI-60 one-dose screen, 48 h (100 = growth as untreated, 0 = no growth, -100 = all killed)
- CONDITIONS_USED: 10 µM unless noted
About 83,000 compounds went through this panel and 20% of them were active in at least one assay; those are over-represented in the sample as a whole.
Give the value in % but do not write % after it.

CC1(C)[C@@H](O)CC[C@]2(C)[C@H]3CC[C@@H]4[C@H]5[C@H](C(=O)/C=C/c6ccc(C(F)(F)F)cc6)CC[C@]5(CO)CC[C@@]4(C)[C@]3(C)CC[C@@H]12 : 70.1
Fc1ccc(Nc2ccc3c(OCCCN4CCOCC4)cccc3n2)cc1F : 76.9
CCCCC[C@H]1C/C=C2/C(=O)C=C[C@@H]2C/C=C\CCCC(=O)O[C@@H](CCCCC)C/C=C2/C(=O)C=C[C@@H]2C/C=C\CCCC(=O)O1 : -93.1
CN(C)CCCC1(c2ccc(F)cc2)OCc2cc(-c3ccc(C(F)(F)F)nc3)ccc21 (centres undefined) : 83.6
Cn1cc(-c2csc(-c3c[nH]c4ccc(F)cc34)n2)c2cccnc21 : 61.9
O=C(O)c1cccc2c1-c1ccc(Cl)cc1C2 : 110
COc1cccc(-c2nn(-c3ccccc3)cc2-c2ccnc(NCCCNS(=O)(=O)c3cccc(F)c3)c2)c1 : 53.6
N=C(N)c1ccc(S(N)(=O)=O)cc1 : 104

Task: Using the record for CC(Cc1ccco1)C(=O)NC(N)=O (centres undefined) , report its growth.
Output: 109
